EXPERIMENT_NOTES: CREB reporter modulators without forskolin, primary screen, cell-based, PC12, CRE-LacZ reporter, unstimulated (AID 1145)
CONDITION_INFO: no forskolin, luminescence, 4.5 h, higher = more signal, called active from +8 up or from −8 down
READOUT_TYPE: z-score
Lab note: record the figure alone, no unit after it.

Query: Given the compound `O=C1O[C@H](c2ccccc2)[C@H](c2ccccc2)N2[C@H]1[C@@H](C(=O)N1CCN(c3ncccn3)CC1)[C@]1(C(=O)Nc3ccccc31)[C@H]2c1ccc(OCCO)cc1` , what is its reported z-score?
Result: -0.528

Query: Form field: reported z-score of `O=C(CS)NCCCCCCNC(=O)[C@H]1C[C@H]2C(=O)N3CCC[C@H]3C(=O)N2[C@H]1c1cccc(OCCO)c1`
Result: 0.549

Next compound, z-score to be filled in.
Query: If you can, please state the reported z-score value of `O=C1O[C@@H](c2ccccc2)[C@@H](c2ccccc2)N2[C@@H](c3ccccc3OCCO)[C@]3(C(=O)Nc4ccc(C#CC5(O)CCCCCC5)cc43)[C@@H](C(=O)Nc3nc4ccccc4s3)[C@H]12` .
Result: 0.224

---

Recorded composite z-score values for a group of compounds are listed next.
TESTED_SYSTEM: Calmodulin-1 (Homo sapiens) (UniProt P0DP23)
EXPERIMENT_NOTES: calcium-bound CALM1 binders on microarrays, profiling panel, artefact control for SMM control-protein annotation, biochemical, small-molecule microarray, Cy5-labelled CALM1, plus calcium (AID 1112);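 note: score merges spot fluorescence with signal to noise from triplicate slides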
CONDITION_INFO: Cy5-CALM1 binding fluorescence, higher = more signal
No unit in the answer, please; the number alone is enough.

Query: Which composite z-score reading was recorded for the compound CC(C)c1ccc(NN2C(C(O)c3cccc(O)c3)C=CC3C(=O)N(c4ccccc4)C(=O)C32)cc1 (stereo not drawn) ?
Result: 0.904

Query: For `C=CCNC(=O)[C@@H]1[C@H]2C(=O)O[C@H](c3ccccc3)[C@H](c3ccccc3)N2[C@H](c2ccccc2OCCO)[C@@]12C(=O)Nc1ccc(C#CC3=CCCCC3)cc12` , what is its reported composite z-score?
Result: 0.17

Query: Fill in the blank: the reported composite z-score of CCN(CC)c1ccc(N2CC=CC34O[C@@H]5C=CCCOC(=O)C5[C@H]3C(=O)N(CCCCCO)[C@@H]4C2=O)cc1 (stereo partly drawn) is ____.
Result: -1.45

Query: Name the recorded composite z-score for `O=C/C=C/c1ccc(Cl)cc1` .
Result: -0.0367

Query: For the compound `Cc1c(NC(=O)CC#N)c(=O)n(-c2ccccc2)n1C` , what composite z-score is on record?
Result: -0.235

More entries:
Query: Looking for the measured composite z-score of `CCOC(=O)C1=C[C@@H](CC)N(S(=O)(=O)c2ccc(C)cc2)[C@H]1c1ccccc1` , can you help?
Result: 0.26

Query: May I ask what composite z-score has been recorded for `O=C(CS)NCCCCCCNC(=O)[C@@H]1C[C@@H]2C(=O)N3CCC[C@H]3C(=O)N2[C@@H]1c1ccc(O)cc1` ?
Result: 0.0689

Query: # input compound: `Cc1ccc(S[C@]2(C(=O)NC3CC3)CC(=O)N(Cc3ccccc3)[C@@H]2c2ccc(CO)cc2)cc1` ; wanted: its composite z-score
Result: 0.176

meta.source: PubChem BioAssay
